test: Cell toxicity assay (CCK-8), Jurkat; type: cell-based; details: human, Jurkat cells; 8 day treatment, n = 3; read-out: CC50 Jurkat (Cellular IC50, 8-days incubation)
Measurement Label: IC50 at 8 days

I am curious: what IC50 at 8 days value has been reported for O=C(Nc1cc2[nH]c(CN3CCC3C3CC3)cc2cn1)c1ccc2nncn2c1 (centres unmarked) ?
> 64 µM

Recorded IC50 at 8 days for CC(C)C1CCN1Cc1cc2cnc(NC(=O)c3ccc4nncn4c3)cc2[nH]1 (centres unmarked) , please?
> 64 µM

I am curious: what IC50 at 8 days value has been reported for CC(C)[C@H]1CCN1Cc1cc2cnc(NC(=O)c3ccc4nncn4c3)cc2[nH]1 [SR-C-107 (R)] ?
> 64 µM

Which IC50 at 8 days reading was recorded for the compound C[C@H]1CCCN1Cc1cc2cnc(NC(=O)c3ccc4nncn4c3)cc2[nH]1 ?
> 64 µM

I'd like to know its IC50 at 8 days. The compound in question is CC(C)C1CCN1Cc1ccc(CNC(=O)c2ccc3nncn3c2)cc1 (centres unmarked)
22 µM
